Items are presented alongside their recorded OD (against CTLA4).
molecular target: T1, CTLA4-Fc fusion protein (human, biotinylated where used as CTLA4-Fc-Biotin (Examples 5.1-5.3)); assay: ELISA, CTLA4-Fc coated, 10 ng VHH/well
T1 construct: expressed in HEK293 cells; also called human CTLA4-Fc protein; CTLA4-Fc antigen protein
T1 sequence (chain, as listed by the source limits assumed): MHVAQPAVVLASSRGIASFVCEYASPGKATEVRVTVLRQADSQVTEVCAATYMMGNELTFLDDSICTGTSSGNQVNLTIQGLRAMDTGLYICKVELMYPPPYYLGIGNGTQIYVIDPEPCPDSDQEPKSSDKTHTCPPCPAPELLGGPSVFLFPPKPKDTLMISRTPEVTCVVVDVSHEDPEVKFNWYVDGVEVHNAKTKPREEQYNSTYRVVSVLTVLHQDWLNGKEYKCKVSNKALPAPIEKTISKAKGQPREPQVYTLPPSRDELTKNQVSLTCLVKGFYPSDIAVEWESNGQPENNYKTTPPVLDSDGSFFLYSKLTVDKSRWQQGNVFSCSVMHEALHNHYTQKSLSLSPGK
State the answer as a number, implicitly in OD405.

// solved cases for OD (against CTLA4) follow
INSERT INTO results (binder, assay_readout, result_unit, measured) VALUES
  ('CTLA4 heavy chain single domain antibody No. 155 (VHH, Camel VHH expressed in E. coli (PET32b), nickel-purified) VHH: QVQLQESGGGPVQAGGSLRLSCAVSKYPYSGSCMGWFRQAPGKEREGVAAMFTGTGSTYYADSVKGRFTISQNVAKNTLDLQMNSLKPEDTAMYYCAVDLLPRSTRCLDYGLRTYNYWGQGTQVTVSS', 'OD (against CTLA4)', 'OD405', 1.72),
  ('CTLA4 heavy chain single domain antibody No. 165 (VHH, Camel VHH expressed in E. coli (PET32b), nickel-purified) VHH: QVQLQESGGGSVQTGGSLRLSCVVSGHSYSRKCMGWFRQAPGKEREEVATFYTGDGRTYYADSVKGRFTISQDNAKNTLYLQMNSLKPEDTGMYFCAADRRVNCDLLQSTFYNYRGQGTQVTVSS', 'OD (against CTLA4)', 'OD405', 1.21);

Now examine the next entry.
Task: Requested read-out: OD (against CTLA4). Entry: CTLA4 heavy chain single domain antibody No. J69 (VHH, Camel VHH expressed in E. coli (PET32b), nickel-purified) VHH: QVQLQESGGGLVQPGGSLRLSCAASGFTLSSYSMTWLRQAPGKGLEWVSTINSGGSTSYADSVKGRFAISRDNAKNTLYLQLNSLEIEDTGMYYCQGGLTRGQGTQVTVSS
Output: 0.635
